Test: in vitro
Conditions: human, hela cells, % viability, bulk resorufin, single well
endpoint name: viability at 28.5 h, 10 µM (%)
Give bare numbers, in %.

Solved entries:
molecule | data value
CCOC(=O)C1(c2ccccc2)CCN(C(=O)CCC(=O)O)CC1 [CBK132197] | 94.7
O=C1NC(=O)N(c2ccc(O)cc2)C(=O)/C1=C/c1cc(Cl)c(OCc2ccccc2)c(Cl)c1 [CBK265385] | 78.1

Would you mind giving viability at 28.5 h, 10 µM for every molecule in the list below?
1. O=C(Cc1cccs1)N1CCC2(CC1)OCc1ccccc1O2 [CBK061086]
2. CCC(NC(=O)c1cn(CCOC)c2ccccc12)c1ccncc1 (centres unmarked) [CBK305186]

*A*
1. 86.8
2. 95.7

Would you mind giving viability at 28.5 h, 10 µM for every molecule in the list below?
1. O=C1NC(=O)C(=NNc2ccc(S(=O)(=O)O)cc2)C(=O)N1 [CBK261439]
2. CC(C)(C)OC(=O)N1CCC2(CC1)OCc1cc(-c3cccc(C(=O)NCc4ccc(Cl)cc4)c3)ccc1O2 [CBK107834]
3. NC(=O)Cn1cc(C(=O)COc2ccccc2)c2ccccc21 [CBK267650]
4. O=C(O)COc1ccccc1/C=C1\C(=O)NC(=O)N(c2ccc(O)cc2)C1=O [CBK265436]
5. O=C(Nc1ccccc1F)N1CCC2(CC1)OCc1cc(-c3ccco3)ccc1O2 [CBK060597]
6. CCOC(=O)C1(c2ccccc2)CCN(C(=O)CCC(=O)OC)CC1 [CBK132198]

*A*
[88.7, 93.3, 95.2, 85.2, 92, 79.8]

*Q* State the recorded viability at 28.5 h, 10 µM for this entry: CCCCN1C(=O)C(O)(c2c(C)nn(CCO)c2N)c2ccccc21 (centres unmarked) [CBK304286]
*A* 116
